System: 786-0 renal
Procedure details: NCI-60 one-dose screen, 48 h
Conditions: 10 µM unless noted
About 83,000 compounds went through this panel and 20% of them were active in at least one assay; those are over-represented in the sample as a whole. The source made the active and inactive calls. Rule for the calls: active = growth percent below 10; inactive = the rest.
Write down the outcome that applies. Available outcomes: True for active, False for inactive

Worked set:
>>> label_value("C[C@@H](C[C@H](CCO)c1cc(C(F)(F)F)cc(C(F)(F)F)c1)c1ccc2ccccc2c1")
"False"
>>> label_value("COc1ccc2c(CCc3ccc(Cl)cc3)c3[n+](cc2c1OC)CCc1cc2c(cc1-3)OCO2")
"False"
>>> label_value("CN1CCN(c2nc(NCCNc3ccnc4cc(Cl)ccc34)c3ccccc3n2)CC1")
"True"
>>> label_value("CO/C=C/C(=O)c1cc2cnc3c(=N)cc(NC(=O)C(C)C)c([nH]1)c23")
"True"
>>> label_value("CCCc1cc2cc(-n3nc(C)c4c3CC(C)(C)CC4=O)cc(NC3CCC(O)CC3)c2c(=O)[nH]1 (centres undefined)")
"False"

Q: Field: outcome | Entry: CCc1cc2c(cc1N1CCC(N3CCOCC3)CC1)C(C)(C)c1[nH]c3cc(C#N)ccc3c1C2=O
Result: True

----------
Tested on: SNB-19 CNS
Procedure details: NCI-60 one-dose screen, 48 h (100 = growth as untreated, 0 = no growth, -100 = all killed)
Conditions: 10 µM unless noted
This is part of a sample that, as a whole, favours compounds with a hit. Of some 83,000 tested, about 20% had one in any assay.
Readout type: growth (%)
Answers are plain numbers, in %.

Example compounds with recorded growth:
>>> value("COc1ccc(S(=O)(=O)N(C(C)=O)c2ccccc2/C=C/c2cc[n+]([O-])cc2)cc1")
25.4
>>> value("CC/C(=C(/c1ccc(Cl)cc1)c1ccc(OCCN2CCCCC2)cc1)c1ccc(Cl)cc1")
85.7
>>> value("CNC(=O)c1cccc2cc(Oc3ccnc4cc(OCC5(N)CC5)c(OC)cc34)ccc12")
67.6
>>> value("C=CC(=O)N1CCC(Oc2cc3c(Nc4ccc(Cl)c(Cl)c4F)ncnc3cc2OC)CC1")
32.4

Q: Entry under review: COC(=O)C1CCc2sc3ncnc(Nc4cn[nH]c4C(=O)Nc4ccc(CN5CCN(C)CC5)cc4)c3c21 (stereo not given) . Reported growth?
Result: 21.6

----------
Test system: SK-MEL-28 melanoma
Procedure details: NCI-60 one-dose screen, 48 h (100 = growth as untreated, 0 = no growth, -100 = all killed)
Conditions: 10 µM unless noted
Compounds without any hit were thinned out: in the full panel of roughly 83,000, 20% have a hit.
Readout type: growth (%)
Give bare numbers, in %.

Past entries and their recorded results:
>>> value("CCn1c(-c2nonc2N)nc2c(C#CC(C)(C)O)ncc(OC[C@H]3CCCNC3)c21")
45.8
>>> value("CNC(=O)CN1CCC(Oc2cc3c(Nc4cccc(Cl)c4F)ncnc3cc2OC)CC1")
91.7
>>> value("Cc1ccc(-[n+]2c3cc(N)c(C)cc3nc3cc(C)c(Nc4ccccc4)cc32)cc1")
-69.6
>>> value("CC(=O)OCCC/C(=C\\c1ccc2ccccc2c1)[N+](=O)[O-]")
-91.1

Batch: growth for all items listed.
1. COc1cc(NCCCN)c2ncccc2c1
2. Nc1ncnc2c1c(-c1cccc(OCc3ccccc3)c1)cn2C1CC(CN2CCC2)C1 (stereo not given)
3. O=C1C=CC2(NN=C(c3ccccc3)N2c2cccc(Cl)c2)C(Cl)=C1 (stereo not given)
4. O=C(c1ccc(F)c(F)c1Nc1ccc(I)cc1F)N1CC(O)([C@@H]2CCCCN2)C1
5. O=C1CC(c2ccc(Cl)cc2)c2ncn(-c3cccc(Cl)c3)c2N1 (stereo not given)
6. O=C(NC1CCNCC1)c1[nH]ncc1NC(=O)c1c(Cl)cccc1Cl

Result:
1. 83.4
2. -69.6
3. 111
4. -1.76
5. 54.8
6. -14.5

----------
System: HOP-92 NSCLC
Procedure details: NCI-60 one-dose screen, 48 h
Conditions: 10 µM unless noted
About 83,000 compounds went through this panel and 20% of them were active in at least one assay; those are over-represented in the sample as a whole. Active and inactive are the calls of the source. Rule for the calls: active = growth percent below 10; inactive = the rest.
I would appreciate it if you answered using one of these outcomes: true (active), false (inactive)

Solved entries:
>>> label_value("Nc1cc2c(cc1Br)-c1c(C(=O)O)cccc1C2O (configuration not stated)")
"false"
>>> label_value("C=CCN(/C=C1/C(=O)O[C@H](COC)[C@@]2(C)C1=C(O)C(=O)C1=C2[C@H](OC(C)=O)C[C@]2(C)C(=O)CC[C@@H]12)CC=C")
"true"
>>> label_value("N#Cc1ccc(-n2nnc3ccccc32)cc1C#N")
"false"
>>> label_value("COc1ccc(OC)c(NC2=C(SCCc3ccccc3)C(=O)c3ccccc3C2=O)c1")
"false"
>>> label_value("C#Cc1cccc(Nc2ncnc3cc(OC)c(OCCCCCCC(=O)NO)cc23)c1")
"true"

Q: Dear all, I need the recorded test outcome for CC(N)C(Cc1ccc(Cl)cc1)c1ccc(Cl)cc1 (configuration not stated) , thank you.
Result: false

Q: Now consider NS(=O)(=O)c1ccc(CCN2C(=O)/C(=C\c3ccc(Cl)cc3)C=C2c2ccc3ccccc3c2)cc1 and answer again.
Result: false

Q: Another molecule to look at: COc1ncc(-c2ccc3nccc(-c4ccnnc4)c3c2)cc1NS(=O)(=O)c1ccc(F)cc1F
Result: true

Q: Try this molecule too: CC(C)c1ccc(/C=N/Nc2nc3ccccc3s2)cc1
Result: false

Q: Another: C=CC(=O)N1CCC[C@H](n2c(=O)n(-c3ccc(Oc4ccccc4)cc3)c3c(N)ncnc32)C1
Result: false

----------
System: HCT-15 colon
Procedure details: NCI-60 one-dose screen, 48 h (100 = growth as untreated, 0 = no growth, -100 = all killed)
Conditions: 10 µM unless noted
This is part of a sample that, as a whole, favours compounds with a hit. Of some 83,000 tested, about 20% had one in any assay.
Hi, to clarify the labels: true covers growth from 30% upward, false covers anything below 30%.

>>> label_value("C[C@]12O[C@H](C[C@]1(O)CO)n1c3ccccc3c3c4c(c5c6ccccc6n2c5c31)CNC4=O")
"false"
>>> label_value("COC(=O)[C@@H](OC)[C@@H]1Cc2cc3cc(OC4CC(OC5CC(O)C(O)C(C)O5)C(O)C(C)O4)c(C)c(O)c3c(O)c2C(=O)[C@H]1OC1CC(OC2CC(OC3CC(C)(O)C(O)C(C)O3)C(O)C(C)O2)C(O)C(C)O1 (some centres undefined)")
"false"
>>> label_value("Cc1c(NC(=O)OC[C@@H]2COCCN2)cn2ncnc(Nc3ccc4c(cnn4Cc4cccc(F)c4)c3)c12")
"false"

Continue with the molecule presented below.
Q: Determine whether this molecule has growth no lower than 30%: CC1(O)CCC(Nc2cc(-c3ccc(C(F)(F)F)cc3)c(C#N)c3nc4ccccc4n23)CC1 (centres undefined)
Result: true

----------
System: M14 melanoma
Procedure details: NCI-60 one-dose screen, 48 h (100 = growth as untreated, 0 = no growth, -100 = all killed)
Conditions: 10 µM unless noted
Compounds without any hit were thinned out: in the full panel of roughly 83,000, 20% have a hit.
Readout type: growth (%)
Give bare numbers, in %.

Would you please look over these solved cases?
>>> value("Cc1nc(Nc2n[nH]c3c2CN(C(=O)N[C@H](CN(C)C)c2ccccc2)C3(C)C)c2sccc2n1")
-54.8
>>> value("CC1(O)CCC(Nc2cc(-c3ccc(C(F)(F)F)cc3)c(C#N)c3nc4ccccc4n23)CC1 (configuration not stated)")
91.2
>>> value("CC(C)(C)C(=O)OCOP(=O)(OCOC(=O)C(C)(C)C)C1CCCN(OC(=O)c2ccccc2)C1=O (configuration not stated)")
47.2
>>> value("CC(CCCC(=O)O)c1ccoc1 (configuration not stated)")
97.2

Batch request: growth per item, same order as input.
1. COc1ccc2c(c1OC)C(=O)O[C@@H]2[C@H]1c2c(c(C#CC#Cc3ccc(F)c(F)c3)c3c(c2OC)OCO3)CCN1C
2. CO[C@H]1C[C@@H]2CC[C@@H](C)[C@@](O)(O2)C(=O)C(=O)N2CCCC[C@H]2C(=O)O[C@H]([C@H](C)C[C@@H]2CC[C@@H](OP(C)(C)=O)[C@H](OC)C2)CC(=O)[C@H](C)/C=C(\C)[C@@H](O)[C@@H](OC)C(=O)[C@H](C)C[C@H](C)\C=C/C=C/C=C/1C
3. NC1=Nc2cc(OCCCN3Cc4ccccc4C3)c(OCC3CC3)cc2C12CCCC2

Result:
1. 90.6
2. 66.4
3. -70.2

----------
System: NCI-H226 lung
Procedure details: NCI-60 one-dose screen, 48 h (100 = growth as untreated, 0 = no growth, -100 = all killed)
Conditions: 10 µM unless noted
About 83,000 compounds went through this panel and 20% of them were active in at least one assay; those are over-represented in the sample as a whole.
Records here are stratified by growth; strata: A (below 20%), B (20% to below 90%), C (90% or more)

>>> label_value("CC1(O)CC(c2nc(-c3ccc4ccc(-c5ccccc5)nc4c3)c3c(N)nccn23)C1 (stereo not given)")
"B"
>>> label_value("CCCCCCCC(=O)SCC/C=C/[C@@H]1CC(=O)NCc2cccc(n2)C2=N[C@@](C)(CS2)C(=O)N[C@@H](C(C)C)C(=O)N1")
"B"

Q: Form: Item = O=C1NC(=O)/C(=C/c2ccc3nccc(-c4ccncc4)c3c2)S1 ; Class = ?
Result: A

Q: Request: COc1cc(N2CCC(N3CCN(C)CC3)CC2)ccc1Nc1ncnc(Nc2ccccc2S(=O)(=O)C(C)C)n1
Result: C

Q: Follow-up entry: COc1ccc(-n2c(=O)c3ccccc3n(Cc3ccc(C(=O)NO)cc3)c2=O)cc1
Result: B

Q: For O=C(COc1ccc(/C=C2\Cc3ccc(Cl)cc3C2=O)cc1)Nc1nccs1 then?
Result: C

Q: Next compound up: Cc1cc2c3c(cccc3c1)C(=O)c1ccccc1-2
Result: C

Q: How about this compound: CCOc1cccc(/C=N/NC(=O)c2ccccc2Nc2ccnc(C(F)(F)F)c2)c1O
Result: A

Q: COc1ccc(Br)cc1NC(=O)Nc1cccc2c1ccn2Cc1ccnc(N)c1 , same question.
Result: B

Q: Would you mind doing CCN(CC)CCNc1ccc(N=Nc2cnc3ccccc3c2)c2ccccc12 as well?
Result: A

Q: Next entry: COc1cc2c(cc1O)c(=O)n(CCN(C)C)c1c3cc4c(cc3ncc21)OCO4
Result: A
